Assay Protocol: Measurement of thermal stability by thermogravimetric analyzer
Type: physicochemical
Please provide measured Temperature at which 5% weight loss occurred for the entries that follow.

Please review the following examples before continuing.
- Compound: "O=C1c2cccc3cccc(c23)C(=O)N1OS(=O)(=O)C(F)(F)F [Formula II, reference compound]"
  Recorded Measurement: "223 °C"
- Compound: "CCCC(OC)c1ccc2c3c(cccc13)C(=O)N(OS(=O)(=O)C(F)(F)F)C2=O (centres unmarked)"
  Recorded Measurement: "230 °C"
- Compound: "CCCCOCCOC(CCC)c1ccc2c3c(cccc13)C(=O)N(OS(=O)(=O)C(F)(F)F)C2=O (centres unmarked)"
  Recorded Measurement: "235 °C"
- Compound: "CCCCOC(CCC)c1ccc2c3c(cccc13)C(=O)N(OS(=O)(=O)C(F)(F)F)C2=O (centres unmarked)"
  Recorded Measurement: "232 °C"

// switching to the query compound
Prompt: Reported Temperature at which 5% weight loss occurred for CCCC(OCCOC)c1ccc2c3c(cccc13)C(=O)N(OS(=O)(=O)C(F)(F)F)C2=O (centres unmarked) : what is it?
Completion: 234 °C

###

Assay Protocol: Measurement of solubility of photoacid generators in photoresist solvents
Format: physicochemical
Experimental Context: solvent PGMEA
Provide the recorded Solubility (w/v %) PGMEA for the entries that follow.

Reference set (2 entries):
- Compound: "O=C1c2cccc3cccc(c23)C(=O)N1OS(=O)(=O)C(F)(F)F [Formula II, reference compound]"
  Solubility (w/v %) PGMEA: "1.7 w/v %"
- Compound: "CCCCOCCOC(CCC)c1ccc2c3c(cccc13)C(=O)N(OS(=O)(=O)C(F)(F)F)C2=O (stereo not shown)"
  Solubility (w/v %) PGMEA: "45.0 w/v %"

For each of the items listed, what is its Solubility (w/v %) PGMEA?
1. CCCCOC(CCC)c1ccc2c3c(cccc13)C(=O)N(OS(=O)(=O)C(F)(F)F)C2=O (stereo not shown)
2. CCCC(OCCOC)c1ccc2c3c(cccc13)C(=O)N(OS(=O)(=O)C(F)(F)F)C2=O (stereo not shown)

Completion:
1. 50.0 w/v %
2. 60.0 w/v %

###

Assay Protocol: Measurement of solubility of photoacid generators in photoresist solvents
Type: physicochemical
Experimental Context: solvent cyclohexane
Please go through the items and note down their Solubility (w/v %) Cyclohexane.
Give bare numbers, in w/v %.

Here are 3 molecules together with their reported answers.
- Molecule: "O=C1c2cccc3cccc(c23)C(=O)N1OS(=O)(=O)C(F)(F)F [Formula II, reference compound]"
  Solubility (w/v %) Cyclohexane: 5.8
- Molecule: "CCCCOCCOC(CCC)c1ccc2c3c(cccc13)C(=O)N(OS(=O)(=O)C(F)(F)F)C2=O (stereo not shown)"
  Solubility (w/v %) Cyclohexane: 54.1
- Molecule: "CCCCOC(CCC)c1ccc2c3c(cccc13)C(=O)N(OS(=O)(=O)C(F)(F)F)C2=O (stereo not shown)"
  Solubility (w/v %) Cyclohexane: 62.3

Turning now to a further molecule:
Prompt: GET /values?readout=Solubility (w/v %) Cyclohexane&item= CCCC(OCCOC)c1ccc2c3c(cccc13)C(=O)N(OS(=O)(=O)C(F)(F)F)C2=O (stereo not shown)
Completion: 64.1
